molecular target: Metabotropic glutamate receptor 3 (Rattus norvegicus) (UniProt P31422); assay: Antagonistic activity against Glutamate receptor in rat spinal cord at concentration of 50 uM.; assay type: functional, tissue-based
Sequence (P31422 23-879 limits assumed): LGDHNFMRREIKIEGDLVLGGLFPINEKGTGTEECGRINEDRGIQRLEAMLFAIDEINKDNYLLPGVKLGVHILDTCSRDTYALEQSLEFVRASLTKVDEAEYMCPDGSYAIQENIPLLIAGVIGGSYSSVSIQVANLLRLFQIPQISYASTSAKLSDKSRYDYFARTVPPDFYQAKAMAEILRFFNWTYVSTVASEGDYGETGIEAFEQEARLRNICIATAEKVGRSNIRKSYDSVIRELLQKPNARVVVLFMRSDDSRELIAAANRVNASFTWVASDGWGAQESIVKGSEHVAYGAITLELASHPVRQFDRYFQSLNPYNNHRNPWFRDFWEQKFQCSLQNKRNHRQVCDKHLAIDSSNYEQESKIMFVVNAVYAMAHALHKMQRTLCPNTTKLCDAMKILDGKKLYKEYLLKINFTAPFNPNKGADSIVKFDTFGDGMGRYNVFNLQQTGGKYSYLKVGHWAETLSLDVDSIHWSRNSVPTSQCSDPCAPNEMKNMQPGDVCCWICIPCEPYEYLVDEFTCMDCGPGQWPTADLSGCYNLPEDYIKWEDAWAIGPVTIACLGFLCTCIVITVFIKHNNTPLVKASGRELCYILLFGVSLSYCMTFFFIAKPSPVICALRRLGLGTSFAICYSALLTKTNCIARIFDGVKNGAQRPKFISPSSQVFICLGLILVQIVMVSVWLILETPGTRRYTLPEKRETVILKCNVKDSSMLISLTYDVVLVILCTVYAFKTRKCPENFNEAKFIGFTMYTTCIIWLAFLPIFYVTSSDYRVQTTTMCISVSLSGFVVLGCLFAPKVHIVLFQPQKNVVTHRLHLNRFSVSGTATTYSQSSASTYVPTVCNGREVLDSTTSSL
Where a SMILES comes first, the peptide text is derived from it. [ ]: non-standard residue; d: D form. The star is where a group is joined. Cbz = O=C(OCc1ccccc1)*
Let's look at some molecules and their measured Change in amplitude response.
quantityName: Change in amplitude response (%)

{"molecule": "COC(=O)[C@H](CCSC)NC(=O)[C@@H]1CCCN1C(=O)[C@H]1CCCN1C(=O)[C@H](Cc1ccccc1)NC(=O)[C@H](Cc1ccccc1)NC(=O)[C@H](CCC(N)=O)NC(=O)[C@H](CCC(N)=O)NC(=O)[C@@H]1CCCN1C(=O)[C@H](CCCCNC(=O)OCc1ccccc1)NC(=O)[C@@H]1CCCN1C(=O)[C@H](CCCN=C(N)N)NC(=O)OCc1ccccc1", "quantityName": "Change in amplitude response", "readoutUnit": "%", "readoutValue": -37}
{"molecule": "COC(=O)[C@@H](CCSC)NC(=O)[C@H](CC(C)C)NC(=O)[C@@H](Cc1c[nH]c2ccccc12)NC(=O)[C@H](Cc1c[nH]c2ccccc12)NC(=O)[C@@H](Cc1c[nH]c2ccccc12)NC(=O)[C@H](CCC(N)=O)NC(=O)[C@H](CCC(N)=O)NC(=O)[C@@H]1CCCN1C(=O)[C@H](CCCCN)NC(=O)[C@@H]1CCCN1C(=O)[C@@H](N)CCCN=C(N)N", "quantityName": "Change in amplitude response", "readoutUnit": "%", "readoutValue": 27}
{"molecule": "COC(=O)[C@@H](CCSC)NC(=O)[C@H](CC(C)C)NC(=O)CNC(=O)[C@@H](Cc1c[nH]c2ccccc12)NC(=O)[C@@H](Cc1c[nH]c2ccccc12)NC(=O)[C@H](CCC(N)=O)NC(=O)[C@H](CCC(N)=O)NC(=O)[C@@H]1CCCN1C(=O)[C@H](CCCCNC(=O)OCc1ccccc1)NC(=O)[C@@H]1CCCN1C(=O)[C@H](CCCN=C(N)N)NC(=O)OCc1ccccc1 (Cbz-RPK(Cbz)PQQ[dW][dW]GL[dM]-OMe)", "quantityName": "Change in amplitude response", "readoutUnit": "%", "readoutValue": 11}

----------
Let's look at some compounds and their measured Change in amplitude response.
biological target: Substance-P receptor (Rattus norvegicus) (UniProt P14600); assay: Antagonistic activity against Substance P(6-11) receptor in rat spinal cord at concentration of 50 uM.
Sequence (P14600 whole entry, looked up): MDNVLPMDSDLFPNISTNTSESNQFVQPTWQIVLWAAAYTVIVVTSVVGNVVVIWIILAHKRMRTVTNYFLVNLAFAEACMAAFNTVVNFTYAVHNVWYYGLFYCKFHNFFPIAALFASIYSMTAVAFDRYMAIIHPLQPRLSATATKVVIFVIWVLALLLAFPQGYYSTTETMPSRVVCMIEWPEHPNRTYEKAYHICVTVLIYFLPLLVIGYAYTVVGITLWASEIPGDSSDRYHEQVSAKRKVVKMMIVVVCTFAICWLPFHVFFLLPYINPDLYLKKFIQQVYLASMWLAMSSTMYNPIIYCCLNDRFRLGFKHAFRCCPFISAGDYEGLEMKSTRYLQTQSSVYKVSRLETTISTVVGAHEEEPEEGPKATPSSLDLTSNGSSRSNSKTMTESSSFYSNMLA

{"compound": "COC(=O)[C@@H](CCSC)NC(=O)[C@H](CC(C)C)NC(=O)[C@@H](Cc1c[nH]c2ccccc12)NC(=O)[C@H](Cc1c[nH]c2ccccc12)NC(=O)[C@@H](Cc1c[nH]c2ccccc12)NC(=O)[C@H](CCC(N)=O)NC(=O)[C@H](CCC(N)=O)NC(=O)[C@@H]1CCCN1C(=O)[C@H](CCCCN)NC(=O)[C@@H]1CCCN1C(=O)[C@@H](N)CCCN=C(N)N", "readoutUnit": "%", "Change in amplitude response": -87}
{"compound": "CSCC[C@@H](NC(=O)[C@H](CC(C)C)NC(=O)[C@@H](Cc1c[nH]c2ccccc12)NC(=O)C(Cc1ccccc1)NC(=O)[C@@H](Cc1c[nH]c2ccccc12)NC(=O)[C@H](CCC(N)=O)NC(=O)[C@H](CCC(N)=O)NC(=O)C1CCCN1C(=O)[C@H](CCCCN)NC(=O)C1CCCN1C(=O)[C@@H](N)CCCN=C(N)N)C(=O)O (stereo in doubt)", "readoutUnit": "%", "Change in amplitude response": -100}

----------
target: Substance-P receptor (Rattus norvegicus) (UniProt P14600); assay: Antagonistic activity against Substance P receptor in rat spinal cord at concentration of 50 uM.
Where a SMILES comes first, the peptide text is derived from it. [ ]: non-standard residue; d: D form. The star is where a group is joined. Cbz = O=C(OCc1ccccc1)*
Let's look at some compounds and their measured Change in amplitude response.

{"compound": "COC(=O)[C@@H](CCSC)NC(=O)[C@H](CC(C)C)NC(=O)CNC(=O)[C@@H](Cc1c[nH]c2ccccc12)NC(=O)[C@@H](Cc1c[nH]c2ccccc12)NC(=O)[C@H](CCC(N)=O)NC(=O)[C@H](CCC(N)=O)NC(=O)[C@@H]1CCCN1C(=O)[C@H](CCCCNC(=O)OCc1ccccc1)NC(=O)[C@@H]1CCCN1C(=O)[C@H](CCCN=C(N)N)NC(=O)OCc1ccccc1 (Cbz-RPK(Cbz)PQQ[dW][dW]GL[dM]-OMe)", "target": "Substance-P receptor (Rattus norvegicus) (UniProt P14600)", "readoutUnit": "%", "Change in amplitude response": 8.3}
{"compound": "COC(=O)[C@@H](CCSC)NC(=O)[C@H](CC(C)C)NC(=O)[C@@H](Cc1c[nH]c2ccccc12)NC(=O)[C@H](Cc1c[nH]c2ccccc12)NC(=O)[C@@H](Cc1c[nH]c2ccccc12)NC(=O)[C@H](CCC(N)=O)NC(=O)[C@H](CCC(N)=O)NC(=O)[C@@H]1CCCN1C(=O)[C@H](CCCCNC(=O)OCc1ccccc1)NC(=O)[C@@H]1CCCN1C(=O)[C@@H](N)CCCN=C(N)N", "target": "Substance-P receptor (Rattus norvegicus) (UniProt P14600)", "readoutUnit": "%", "Change in amplitude response": -29}

----------
biological target: Substance-P receptor (Cavia porcellus); experiment: Evaluated in vitro for percent agonist activity in guinea pig ileum (substance P receptor); format: functional, tissue-based
Let's look at some compounds and their measured SP.

{"compound": "COC(=O)[C@@H](CCSC)NC(=O)C(Cc1ccccc1)NC(=O)C(Cc1ccccc1)NC(=O)C(Cc1ccccc1)NC(=O)C(Cc1ccccc1)NC(=O)[C@H](CCC(N)=O)NC(=O)[C@H](CCC(N)=O)NC(=O)[C@@H]1CCCN1C(=O)[C@H](CCCCNC(=O)OCc1ccccc1)NC(=O)[C@@H]1CCCN1C(=O)[C@H](CCCN=C(N)N)NC(=O)OCc1ccccc1 (stereo in doubt)", "SP": "< 0.0001%"}
{"compound": "COC(=O)[C@@H](CCSC)NC(=O)[C@H](CC(C)C)NC(=O)CNC(=O)[C@H](Cc1ccccc1)NC(=O)[C@H](Cc1ccccc1)NC(=O)[C@H](Cc1ccccc1)NC(=O)[C@@H](Cc1ccccc1)NC(=O)[C@@H]1CCCN1C(=O)[C@H](CCCCNC(=O)OCc1ccccc1)NC(=O)[C@@H]1CCCN1C(=O)[C@H](CCCN=C(N)N)NC(=O)OCc1ccccc1", "SP": "< 0.0001%"}
{"compound": "CSCC[C@@H](NC(=O)[C@H](CC(C)C)NC(=O)CNC(=O)[C@H](Cc1ccccc1)NC(=O)[C@H](Cc1ccccc1)NC(=O)[C@@H](NC(=O)[C@H](NC(=O)[C@@H]1CCCN1C(=O)[C@H](CCCCNC(=O)OCc1ccccc1)NC(=O)[C@@H]1CCCN1C(=O)[C@H](CCCN=C(N)N)NC(=O)OCc1ccccc1)C(C)C)C(C)C)C(=O)O", "SP": "< 0.0001%"}
{"compound": "CSCC[C@@H](NC(=O)[C@H](CC(C)C)NC(=O)[C@@H](Cc1c[nH]c2ccccc12)NC(=O)[C@H](Cc1c[nH]c2ccccc12)NC(=O)[C@@H](Cc1c[nH]c2ccccc12)NC(=O)[C@H](CCC(N)=O)NC(=O)[C@H](CCC(N)=O)NC(=O)[C@@H]1CCCN1C(=O)[C@H](CCCCNC(=O)OCc1ccccc1)NC(=O)[C@@H]1CCCN1C(=O)[C@H](CCCN=C(N)N)NC(=O)OCc1ccccc1)C(=O)O", "SP": "< 2%"}

----------
biological target: UniProtKB P30547; assay: Antagonistic activity against Substance P(6-11) receptor in guinea pig ileum at concentration of 5 uM.; format: functional, tissue-based
Sequence (P30547 whole entry): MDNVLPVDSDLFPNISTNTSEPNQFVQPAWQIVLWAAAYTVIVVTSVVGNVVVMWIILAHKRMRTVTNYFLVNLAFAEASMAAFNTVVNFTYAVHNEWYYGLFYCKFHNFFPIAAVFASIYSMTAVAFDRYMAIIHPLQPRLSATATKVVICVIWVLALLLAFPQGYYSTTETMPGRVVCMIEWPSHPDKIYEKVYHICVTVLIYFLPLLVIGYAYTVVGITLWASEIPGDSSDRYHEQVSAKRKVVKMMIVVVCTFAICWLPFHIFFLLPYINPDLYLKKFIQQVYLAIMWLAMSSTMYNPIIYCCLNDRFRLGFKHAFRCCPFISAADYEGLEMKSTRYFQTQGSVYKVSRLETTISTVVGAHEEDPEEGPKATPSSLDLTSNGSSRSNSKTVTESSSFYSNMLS
quantityName: Activity

{"smilesText": "COC(=O)[C@@H](CCSC)NC(=O)[C@H](CC(C)C)NC(=O)[C@@H](Cc1c[nH]c2ccccc12)NC(=O)[C@H](Cc1c[nH]c2ccccc12)NC(=O)[C@@H](Cc1c[nH]c2ccccc12)NC(=O)[C@H](CCC(N)=O)NC(=O)[C@H](CCC(N)=O)NC(=O)[C@@H]1CCCN1C(=O)[C@H](CCCCNC(=O)OCc1ccccc1)NC(=O)[C@@H]1CCCN1C(=O)[C@@H](N)CCCN=C(N)N", "target": "UniProtKB P30547", "quantityName": "Activity", "readoutValue": "< 2 dose ratio"}
{"smilesText": "COC(=O)[C@H](CCSC)NC(=O)[C@@H]1CCCN1C(=O)[C@H]1CCCN1C(=O)[C@H](Cc1ccccc1)NC(=O)[C@H](Cc1ccccc1)NC(=O)[C@H](CCC(N)=O)NC(=O)[C@H](CCC(N)=O)NC(=O)[C@@H]1CCCN1C(=O)[C@H](CCCCNC(=O)OCc1ccccc1)NC(=O)[C@@H]1CCCN1C(=O)[C@H](CCCN=C(N)N)NC(=O)OCc1ccccc1", "target": "UniProtKB P30547", "quantityName": "Activity", "readoutValue": "< 2 dose ratio"}
{"smilesText": "COC(=O)[C@H](CCSC)NC(=O)[C@H](Cc1c[nH]c2ccccc12)NC(=O)[C@@H](Cc1c[nH]c2ccccc12)NC(=O)[C@H](Cc1ccccc1)NC(=O)[C@H](Cc1ccccc1)NC(=O)[C@H](CCC(N)=O)NC(=O)[C@H](CCC(N)=O)NC(=O)[C@@H]1CCCN1C(=O)[C@H](CCCCNC(=O)OCc1ccccc1)NC(=O)[C@@H]1CCCN1C(=O)[C@H](CCCN=C(N)N)NC(=O)OCc1ccccc1", "target": "UniProtKB P30547", "quantityName": "Activity", "readoutValue": "< 2 dose ratio"}
